Target: Aβ(1-42) Oligomers/Polymers (Homo sapiens)
Sequence (P05067 672-713 limits assumed): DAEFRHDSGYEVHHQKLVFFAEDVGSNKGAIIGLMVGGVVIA
Assay: Biacore (SPR) screening on immobilized Aβ42 oligomers/soluble polymers
Format: binding
Conditions: screening compounds at 10 uM
measured endpoint: BINDING LEVELS TO Aβ(1-42) Oligomers/Polymers

INSERT INTO results (molecule, result) VALUES
  ('Cc1c(-c2ccccc2)oc2cc(O)ccc2c1=O', '+'),
  ('Fc1ccc(-c2cn(-c3ccc(Cl)c(Cl)c3)nn2)c(F)c1', '+'),
  ('CCOc1ccc(Oc2c(C)oc3cc(O)ccc3c2=O)cc1', '+'),
  ('Cc1cc(C)c2oc(-c3cccs3)c(O)c(=O)c2c1', '+'),
  ('Fc1cc(F)cc(-c2cn(-c3ccc(F)cc3F)nn2)c1', '++++'),
  ('Cc1nccc2c1[nH]c1cc(O)ccc12 [drawing 32]', '++'),
  ('COc1cccc(-c2oc3cc(OC)ccc3c(=O)c2OC)c1', '+'),
  ('Cc1ccc(O)c(-c2ccno2)c1', '+'),
  ('Cc1oc2cc(O)ccc2c(=O)c1-c1nncn1-c1ccccc1', '++'),
  ('Nc1ccc2[nH]c(C(F)(F)F)nc2c1', '++'),
  ('Fc1ccc(-c2cn(-c3cccc(C(F)(F)F)c3)nn2)c(F)c1', '+'),
  ('Cc1c(-c2ccccc2)c(=O)oc2cc(O)ccc12', '+'),
  ('COc1ccc2oc(-c3ccc(OC)c(OC)c3)c(OC)c(=O)c2c1', '+++'),
  ('Cc1oc2c(C)c(O)ccc2c(=O)c1-c1nncn1-c1ccccc1', '++'),
  ('CCOc1ccc2c(=O)c(Oc3ccccc3)c(C)oc2c1', '+'),
  ('Nc1ccc(O)c2ncccc12', '++'),
  ('O=c1c(O)c(-c2ccccc2)oc2ccc(O)cc12', '+++'),
  ('COc1ccc2c(=O)c(-c3ccccc3)c(C)oc2c1OC', '+'),
  ('O=c1c(O)c(-c2ccccc2)[nH]c2ccccc12', '++++'),
  ('CCc1cc2c(=O)c(-c3ccc(F)cc3)c(C)oc2cc1O', '+');
